Biological target: orexin-1 (Homo sapiens (Human), UniProt O43613)
Sequence (O43613 whole entry): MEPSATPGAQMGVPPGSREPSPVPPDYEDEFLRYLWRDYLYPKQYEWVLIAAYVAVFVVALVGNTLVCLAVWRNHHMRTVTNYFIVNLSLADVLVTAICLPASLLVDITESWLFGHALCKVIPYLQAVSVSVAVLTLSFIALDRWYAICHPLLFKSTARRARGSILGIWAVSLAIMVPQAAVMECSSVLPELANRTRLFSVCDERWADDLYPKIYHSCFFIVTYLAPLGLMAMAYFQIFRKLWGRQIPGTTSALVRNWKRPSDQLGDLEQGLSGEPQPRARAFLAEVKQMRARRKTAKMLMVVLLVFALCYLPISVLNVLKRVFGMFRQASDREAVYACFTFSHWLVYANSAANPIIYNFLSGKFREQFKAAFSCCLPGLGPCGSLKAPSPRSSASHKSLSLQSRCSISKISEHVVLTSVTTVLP
Assay: Intracellular calcium measurement (FLIPR), CHO cells expressing human orexin-1 receptor, 3 nM orexin-A
Assay type: cell-based
Conditions: CHO cells expressing human orexin-1 receptor, FLIPR, 3 nM orexin-A; geometric mean if determined several times; read-out: IC50 OX1
ASSAY_ENDPOINT: IC50 (nM)
Give a bare numeral; the unit nM is implied.

A selection of reference data follows.
COMPOUND: COc1cc(C(=O)N2CCC[C@H]2c2noc(-c3cccc(Cl)c3C)n2)c(-n2nccn2)cc1C [compound 320]
UNIT_DESCRIPTOR: nM
IC50: 25
//
COMPOUND: Cc1noc(-c2ccccc2C(=O)N2CCC[C@H]2c2nc(-c3cccc(Cl)c3C)no2)n1 [compound 267]
UNIT_DESCRIPTOR: nM
IC50: 501
//
COMPOUND: Cc1ccc(-n2nccn2)c(C(=O)N2CCC[C@H]2c2nc(-c3cccnc3OC(F)F)no2)c1 [Example 86]
UNIT_DESCRIPTOR: nM
IC50: 103

Could you now consider this next compound?
Record request: IC50 value, item COc1cc(C(=O)N2CCC[C@H]2c2noc(-c3cccc(OC)c3C)n2)c(-n2nccn2)cc1Cl [compound 355]
188

* * *

Molecular target: human orexin-2 receptor (Homo sapiens (Human), UniProt O43614)
Sequence (O43614 whole entry): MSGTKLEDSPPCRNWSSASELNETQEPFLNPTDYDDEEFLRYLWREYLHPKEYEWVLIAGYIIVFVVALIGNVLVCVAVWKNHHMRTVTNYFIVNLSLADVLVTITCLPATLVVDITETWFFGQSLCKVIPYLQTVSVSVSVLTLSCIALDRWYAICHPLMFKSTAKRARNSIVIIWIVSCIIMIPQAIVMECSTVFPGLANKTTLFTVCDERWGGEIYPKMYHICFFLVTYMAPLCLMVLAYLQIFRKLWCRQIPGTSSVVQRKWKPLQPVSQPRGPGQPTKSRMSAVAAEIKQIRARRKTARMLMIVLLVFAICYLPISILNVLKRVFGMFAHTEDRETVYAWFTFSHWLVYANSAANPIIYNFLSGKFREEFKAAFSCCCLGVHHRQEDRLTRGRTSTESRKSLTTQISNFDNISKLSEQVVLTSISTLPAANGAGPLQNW
Assay: Intracellular calcium measurement (FLIPR), CHO cells expressing human orexin-2 receptor, 3 nM orexin-A
Format: cell-based
Details: CHO cells expressing human orexin-2 receptor, FLIPR, 3 nM orexin-A; geometric mean if determined several times; read-out: IC50 OX2
ASSAY_ENDPOINT: IC50
For clarity, give the value followed by its unit.

COMPOUND: Cc1ccc(C(=O)N2CCC[C@@]2(C)c2nnc(-c3ccccc3OC(F)(F)F)[nH]2)c(-n2nccn2)c1 [compound 543]
IC50: 20 nM
//
COMPOUND: COc1ccc(C)c(-c2nc([C@@H]3CCCN3C(=O)c3cc(Cl)ccc3-n3nccn3)no2)c1 [compound 416]
IC50: 20 nM
//
COMPOUND: Cc1c(Cl)cccc1-c1noc([C@@H]2CCCN2C(=O)c2cc(C(F)(F)F)ccc2-n2nccn2)n1 [compound 97]
IC50: 194 nM
//
COMPOUND: Cc1ccc(-n2nccn2)c(C(=O)N2CCC[C@H]2c2noc(-c3cccc(C(F)(F)F)n3)n2)c1 [compound 314]
IC50: 314 nM
//
COMPOUND: CCOc1ccccc1-c1noc([C@@H]2CCCN2C(=O)c2cccc(C)c2-n2nccn2)n1 [compound 262]
IC50: 145 nM

Record request: IC50 value, item COc1ccc(C)c(-c2nc([C@@H]3CCCN3C(=O)c3cc(C)ccc3-n3nccn3)no2)c1 [compound 410]
14 nM

Record request: IC50 value, item Cc1c(F)cccc1-c1noc([C@@H]2CCCN2C(=O)c2cc(Cl)ccc2-n2nccn2)n1 [compound 245]
21 nM

* * *

Molecular target: human orexin-2 receptor (Homo sapiens (Human), UniProt O43614)
Test: Intracellular calcium measurement (FLIPR), CHO cells expressing human orexin-2 receptor, 3 nM orexin-A
Assay type: cell-based
Conditions: read-out: IC50 OX2
Cut-off 20 nM on IC50: below means rule met, at or above means rule not met.

Some entries whose results are on file:
SMILES_REPRESENTATION: COc1ccccc1-c1nnc([C@@H]2CCCN2C(=O)c2cc(Cl)c(C)cc2-n2nccn2)[nH]1
DISCRETE_LABEL: rule not met
--
SMILES_REPRESENTATION: COc1c(F)cccc1-c1noc([C@@H]2CCCN2C(=O)c2ccc(Cl)cc2-n2nccn2)n1
DISCRETE_LABEL: rule met
--
SMILES_REPRESENTATION: Cc1ccc(-n2cccn2)c(C(=O)N2CCC[C@H]2c2nc(-c3cccc(Cl)c3C)no2)n1
DISCRETE_LABEL: rule not met
--
SMILES_REPRESENTATION: Cc1ccc(-n2nccn2)c(C(=O)N2CCC[C@H]2c2nc(-c3cccc(Cl)c3C)no2)c1F
DISCRETE_LABEL: rule met
--
SMILES_REPRESENTATION: Cc1ccc(C)c(-c2nc([C@@H]3CCCN3C(=O)c3cc(Cl)ccc3-n3nccn3)no2)c1
DISCRETE_LABEL: rule met

Determine whether this compound shows IC50 lower than 20 nM (ties excluded): Cc1c(Cl)cccc1-c1noc([C@@H]2CCCN2C(=O)c2cc(Cl)ccc2-n2nccn2)n1
rule met

Determine whether this compound shows IC50 lower than 20 nM (ties excluded): COc1cc(C)cc(-c2nc([C@@H]3CCCN3C(=O)c3cc(OC)c(Cl)cc3-n3nccn3)no2)c1
rule met

Determine whether this compound shows IC50 lower than 20 nM (ties excluded): COc1cccc(-c2nc([C@@H]3CCCN3C(=O)c3ccc(Cl)cc3-n3nccn3)no2)c1C
rule not met

Determine whether this compound shows IC50 lower than 20 nM (ties excluded): Cc1c(Cl)cccc1-c1nnc([C@]2(C)CCCN2C(=O)c2cc(Cl)ccc2-n2nccn2)[nH]1
rule not met

Determine whether this compound shows IC50 lower than 20 nM (ties excluded): COc1ccccc1-c1nnc([C@@H]2CCCN2C(=O)c2ccc(Cl)cc2-n2nccn2)[nH]1
rule not met

Determine whether this compound shows IC50 lower than 20 nM (ties excluded): CCc1ccccc1-c1nc([C@@H]2CCCN2C(=O)c2cc(Cl)ccc2-n2nccn2)no1
rule met

Determine whether this compound shows IC50 lower than 20 nM (ties excluded): CCOc1c(F)cccc1-c1nc([C@@H]2CCCN2C(=O)c2ccc(Cl)cc2-n2nccn2)no1
rule met

Determine whether this compound shows IC50 lower than 20 nM (ties excluded): COc1ccc(C(=O)N2CCC[C@H]2c2nc(-c3cccc(Cl)c3C)no2)c(-n2nccn2)c1
rule not met

Determine whether this compound shows IC50 lower than 20 nM (ties excluded): O=C(c1cc(Cl)ccc1-n1nccn1)N1CCC[C@H]1c1nc(-c2ccccc2OC(F)(F)F)no1
rule not met

Determine whether this compound shows IC50 lower than 20 nM (ties excluded): COc1c(Cl)cccc1-c1nc([C@@H]2CCCN2C(=O)c2cc(Cl)ccc2-n2nccn2)no1
rule met

* * *

Biological target: orexin-1 (Homo sapiens (Human), UniProt O43613)
Test: Intracellular calcium measurement (FLIPR), CHO cells expressing human orexin-1 receptor, 3 nM orexin-A
Assay type: cell-based
Settings: CHO cells expressing human orexin-1 receptor, FLIPR, 3 nM orexin-A; geometric mean if determined several times; read-out: IC50 OX1
Cut-off 200 nM on IC50: below means 1.0, at or above means 0.0.

Some entries whose results are on file:
SMILES_REPRESENTATION: Cc1c(Cl)cccc1-c1noc([C@@H]2CCCN2C(=O)c2cccc(Cl)c2-n2nccn2)n1
DISCRETE_LABEL: 0.0
--
SMILES_REPRESENTATION: COc1ccccc1-c1noc([C@@H]2CCCN2C(=O)c2cc(C)c(C)cc2-n2nccn2)n1
DISCRETE_LABEL: 1.0
--
SMILES_REPRESENTATION: Cc1ccc(-n2nccn2)c(C(=O)N2CCC[C@H]2c2nc(-c3cccc4c3OCO4)no2)c1
DISCRETE_LABEL: 1.0
--
SMILES_REPRESENTATION: Cc1ccc(-c2ccccn2)c(C(=O)N2CCC[C@H]2c2nc(-c3ccccc3OC(F)(F)F)no2)c1
DISCRETE_LABEL: 1.0
--
SMILES_REPRESENTATION: O=C(c1ccc(F)cc1-n1cccn1)N1CCC[C@H]1c1nc(-c2ccccc2OC(F)(F)F)no1
DISCRETE_LABEL: 0.0

Would you kindly look at the next entry?
Determine whether this compound shows IC50 lower than 200 nM (ties excluded): COc1cc(C(=O)N2CCC[C@H]2c2noc(-c3cccc(Cl)c3OC)n2)c(-n2nccn2)cc1C
1.0

* * *

List of pIC50 values.
Target: orexin-1 (Homo sapiens (Human))
Test: Intracellular calcium measurement (FLIPR), CHO cells expressing human orexin-1 receptor, 3 nM orexin-A
Type: cell-based
Details: CHO cells expressing human orexin-1 receptor, FLIPR, 3 nM orexin-A; geometric mean if determined several times; read-out: IC50 OX1
Friendly reminder that pIC50 comes from taking -log10 of the concentration in mol/L.

A selection of reference data follows.
SMILES_REPRESENTATION: Cc1cccc(-c2oc(C)nc2C(=O)N2CCC[C@H]2c2nc(-c3ccccc3OC(F)(F)F)no2)c1
RESULT_NUMBER: 6.91
--
SMILES_REPRESENTATION: COc1cc(C(=O)N2CCC[C@H]2c2nnc(-c3cccc(F)c3OC)[nH]2)c(-n2nccn2)cc1Cl
RESULT_NUMBER: 7.72
--
SMILES_REPRESENTATION: Cc1cc(F)cc(C(=O)N2CCC[C@H]2c2nc(-c3cccc(Cl)c3C)no2)c1-n1nccn1
RESULT_NUMBER: 6.08
--
SMILES_REPRESENTATION: CCc1ccccc1-c1nc([C@@H]2CCCN2C(=O)c2cc(OC)c(Cl)cc2-n2nccn2)no1
RESULT_NUMBER: 7.82
--
SMILES_REPRESENTATION: Cc1ccc(-c2ccccc2)c(C(=O)N2CCC[C@H]2c2nc(-c3ccccc3OC(F)(F)F)no2)c1
RESULT_NUMBER: 7.92
--
SMILES_REPRESENTATION: Cc1ccc(-n2nccn2)c(C(=O)N2CCC[C@H]2c2nc(-c3ccccc3OC(F)(F)F)co2)c1
RESULT_NUMBER: 8.00

What reported pIC50 corresponds to CCOc1ccccc1-c1noc([C@@H]2CCCN2C(=O)c2cccc(F)c2-c2ccn[nH]2)n1 on orexin-1 (Homo sapiens (Human))?
7.16
